tested on: reconstructed human corneal epithelium model (SkinEthic™ HCE)
property label: EIT prediction

compound: CCCCCCCCCCCCCCOC(=O)CCCCCCCCCCCCC [Tetradecyl tetradecanoate]
target or system: reconstructed human corneal epithelium model (SkinEthic™ HCE)
EIT prediction: No Cat
//
compound: Cc1cc(C)nc(Nc2ccccc2)n1
target or system: reconstructed human corneal epithelium model (SkinEthic™ HCE)
EIT prediction: No Cat
//
compound: O=C([O-])C(=O)[O-].[Na+].[Na+] [Sodium oxalate]
target or system: reconstructed human corneal epithelium model (SkinEthic™ HCE)
EIT prediction: Cat 1
//
compound: CC(C)(C)CC(C)(C)c1cc(Cc2cc(C(C)(C)CC(C)(C)C)cc(-n3nc4ccccc4n3)c2O)c(O)c(-n2nc3ccccc3n2)c1
target or system: reconstructed human corneal epithelium model (SkinEthic™ HCE)
EIT prediction: No Cat

Next compound, EIT prediction to be filled in.
I have this compound here, CC(C)(C)c1cc(Cc2cc(C(C)(C)C)c(O)c(C(C)(C)C)c2)cc(C(C)(C)C)c1O , and I need its recorded EIT prediction.
No Cat
